Experiment: Selectivity index, ratio of GI50 for human A549 cells to MIC for Mycobacterium tuberculosis H37Ra ATCC 25177 dormant stage
Assay type: toxicity
Settings: read-out: Selectivity Index
MEASURED_METRIC: selectivity ratio
Could you respond with only the numeric value?

# SMILES_STR, TEST_VALUE
rows = [
    ("Cc1nc(-c2ccccc2)oc1-c1csc(Cc2ccc(Cl)cc2)n1", 95),
    ("Cc1nc(-c2ccc(F)cc2)oc1-c1csc(Cc2cccc(Cl)c2)n1", 88),
    ("Cc1nc(-c2ccc(F)cc2)oc1-c1csc(Cc2ccccc2)n1", 115),
    ("Cc1nc(-c2ccccc2)oc1-c1csc(-c2ccccc2)n1", 9),
    ("Cc1nc(-c2ccccc2)oc1-c1csc(Cc2cccc(Cl)c2)n1", 195),
]

Next compound, selectivity ratio to be filled in.
Record summary for Cc1nc(-c2ccc(F)cc2)oc1-c1csc(Cc2ccc(F)cc2)n1 : reported selectivity ratio = 391

====

System: Mycobacterium tuberculosis
Test: Antitubercular activity against Mycobacterium bovis BCG ATCC 35743 dormant stage by nitrate reductase based two-fold dilution assay
Format: functional
Details: BCG str. ATCC 35743
MEASURED_METRIC: MIC90

# SMILES_STR, MEASURED_METRIC, TEST_VALUE
measured = [
    ("Cc1ccc(-c2nc(-c3oc(-c4ccc(F)cc4)nc3C)cs2)cc1", "MIC90", "> 100 µM"),
    ("Cc1nc(-c2ccccc2)oc1-c1csc(-c2ccc(F)c(Cl)c2)n1", "MIC90", "> 100 µM"),
]

get_value(item= Cc1nc(-c2ccc(F)cc2)oc1-c1csc(Cc2ccc(Cl)cc2)n1 , readout=MIC90) returns > 100 µM

# compound Cc1nc(-c2ccccc2)oc1-c1csc(-c2ccccc2)n1 ; its MIC90 = 85.9 µM

// sample CO[C@H]1/C=C/O[C@@]2(C)Oc3c(C)c(O)c4c(O)c(c(/C=N/N5CCN(C)CC5)c(O)c4c3C2=O)NC(=O)/C(C)=C\C=C\[C@H](C)[C@H](O)[C@@H](C)[C@@H](O)[C@@H](C)[C@H](OC(C)=O)[C@@H]1C , its MIC90 was 0.98 µM

Lab note: measured MIC90 of Cc1nc(-c2ccc(F)cc2)oc1-c1csc(-c2ccc(F)cc2)n1 was > 100 µM

The reported value for Cc1nc(-c2ccc(F)cc2)oc1-c1csc(Cc2cccc(Cl)c2)n1 in terms of MIC90 is 6.26 µM

Measured MIC90 of Cc1nc(-c2ccc(F)cc2)oc1-c1csc(Cc2ccc(F)cc2)n1 : 1.76 µM

response.value for Cc1nc(-c2ccccc2)oc1-c1csc(-c2ccc(Br)cc2)n1 (field: MIC90) = > 100 µM

MIC90 measured on Cc1nc(-c2ccccc2)oc1-c1csc(Cc2ccc(Cl)cc2)n1 = 5.8 µM

Per the record, Cc1nc(-c2ccc(F)cc2)oc1-c1csc(Cc2ccccc2)n1 has MIC90 of 7.33 µM

Cc1nc(-c2ccccc2)oc1-c1csc(-c2ccc(F)cc2)n1 has a reported MIC90 of > 100 µM

====

Quick reference: inhibition of growth at 1 µg/mL of the listed items.
Test system: Pseudomonas fluorescens
Experiment: Growth inhibition of Pseudomonas fluorescens NCIM 2059 at 1 ug/ml measured after 8 hrs relative to control
Type: functional
Details: NCIM 2059, 8 h, read-out: GI
Your answer should be a number followed by the unit of measure.

Record summary for Cc1nc(-c2ccccc2)oc1-c1csc(-c2ccc(Br)cc2)n1 : reported inhibition of growth at 1 µg/mL = 64.5%

Please fill in: inhibition of growth at 1 µg/mL reported for Cc1nc(-c2ccccc2)oc1-c1csc(-c2ccccc2)n1 = 88.9%

Entry Cc1ccc(-c2nc(-c3oc(-c4ccc(F)cc4)nc3C)cs2)cc1 ; inhibition of growth at 1 µg/mL = 2.41%

Recorded inhibition of growth at 1 µg/mL (compound Cc1nc(-c2ccc(F)cc2)oc1-c1csc(-c2ccc(F)cc2)n1 ): 40.6%
